- Target under test: T1, TDP-220 peptide (human)
- T1 construct: 8-mer of human TDP-43; same ELISA method as for the biotinylated 15-mers
- T1 peptide: VFIPKPFR
- Assay details: indirect ELISA, 8-mer peptide library

| Binder | binding result |
| --- | --- |
| ACI-7062-412E12-Ab1 (antibody, IgG1, V domains shown, also called 412E12A2; clone 10) VH: DVQLVESGGGLVQPGGSRRLSCAASGFTFSRFGMHWVRQAPEKGLEWVAYIRSGSDIIYYADSVKGRFTISRDNPENTLFLQMTSLRSEDTAMYYCARSGTTVPFDYWGQGTSLTVSS VL: DIVMTQSPSSLAMSVGQKVTMSCKSSQSLLNSGDQKNYLAWYQQKPGQSPELLLYFASTRASGVPDRFIGSGSGTDFSLTISSVQAEDLADYFCQQHYSIPLTFGAGTKLELKR | no binding |
| ACI-7062-415C4-Ab1 (antibody, IgG1, V domains shown, also called 415C4C6; clone 14) VH: QVTLKESGPGILQPSQTLSLTCSFSGFSLSTYGIGVGWIRQPSGKGLEWLAHIWWNDNKYYKTALKSRLTISKDTSNNQVFLKIASVDTADSATYYCARVYGNLYYFGYWGQGTTLTVSS VL: DVLMTQTPLSLPVSLGDQASISCRSSQSIVHSTGNTYLEWYLQKPGQSPKLLIYKVSNRFSGVPDRFSGSGSGTDFTLKISRVEAEDLGVYYCFQGSRVPTFGAGTKLELKR | no binding |
| ACI-7062-406E3-Ab1 (antibody, IgG2a, V domains shown, also called 406E3D5; clone 5) VH: QVTLKESGPAILQPSQTLSLTCSFSGFSLTTYGIGVGWIRQPSGKGLEWLAHIWWNDNKYYNTALKSRLTVSKDTSNNQVFLKIASVDTADTATYYCARVYGNLYYFAYWGQGTTLTVSS VL: DVLMTQTPLSLPVSLGDRASISCRSSQSIVHRSGNTYLEWYLQKPGQSPKLLIYKVSNRFSGVPDRFSGSGSGTDFTLKISRVEAEDLGVYYCFQGSHVPTFGAGTKLELKR | no binding |
